- Test system: frog skin
- experiment_description: Frog skin assay: melanosome dispersion (skin darkening) in vitro
- Assay type: cell-based, Rana pipiens
- condition_set: tested in the range 10^-12 to 10^-9 M; compared to half-maximal effective dose of α-MSH (10^-10 M)
Non-standard residues stand in square brackets, D forms with d. Residues, ends and D or L forms follow the SMILES beside them.
Would you mind telling me the reported Potencies Relative to α-MSH, Frog Skin Assay of each entry?
Respond with the number and no other words.

Entry CCCC[C@H](NC(=O)[C@H](CO)NC(=O)[C@H](Cc1ccc(O)cc1)NC(=O)[C@H](CO)NC(C)=O)C(=O)N[C@H]1CCC(=O)N[C@@H](CO)C(=O)N[C@@H](CO)C(=O)NCCCC[C@@H](C(=O)N2CCC[C@H]2C(=O)N[C@H](C(N)=O)C(C)C)NC(=O)CNC(=O)[C@H](Cc2c[nH]c3ccccc23)NC(=O)[C@H](CCCNC(=N)N)NC(=O)[C@@H](Cc2ccccc2)NC(=O)[C@H](Cc2c[nH]cn2)NC1=O has what Potencies Relative to α-MSH, Frog Skin Assay? 5

Entry CCCC[C@H](NC(C)=O)C(=O)N[C@H]1CC(=O)N[C@@H](CCCNC(=N)N)C(=O)N[C@@H](CCCCN)C(=O)NCCCC[C@@H](C(N)=O)NC(=O)[C@H](Cc2c[nH]c3ccccc23)NC(=O)[C@H](CCCNC(=N)N)NC(=O)[C@@H](Cc2ccccc2)NC(=O)[C@H](Cc2c[nH]cn2)NC1=O has what Potencies Relative to α-MSH, Frog Skin Assay? 0.25

Entry CC(=O)N[C@@H](CO)C(=O)N[C@@H](Cc1ccc(O)cc1)C(=O)N[C@@H](CCCCN)C(=O)N[C@@H](CCCCN)C(=O)N[C@@H](CCC(=O)O)C(=O)N[C@@H](Cc1c[nH]cn1)C(=O)N[C@H](Cc1ccccc1)C(=O)N[C@@H](CCCNC(=N)N)C(=O)N[C@@H](Cc1c[nH]c2ccccc12)C(=O)NCC(=O)N[C@@H](CCCCN)C(=O)N1CCC[C@H]1C(=O)N[C@H](C(N)=O)C(C)C [SHU 9027, Ac[Lys^3,4, DPhe^7]-α-MSH1-13NH2] (Ac-SYKKEH[dF]RWGKPV-NH2) has what Potencies Relative to α-MSH, Frog Skin Assay? 0.4

Entry CCCC[C@H](NC(=O)[C@H](CO)NC(=O)[C@H](Cc1ccc(O)cc1)NC(=O)[C@H](CO)NC(C)=O)C(=O)N[C@H]1CCC(=O)N[C@@H](CCCNC(=N)N)C(=O)N[C@@H](CCCNC(=N)N)C(=O)NCCCC[C@@H](C(=O)N2CCC[C@H]2C(=O)N[C@H](C(N)=O)C(C)C)NC(=O)CNC(=O)[C@H](Cc2c[nH]c3ccccc23)NC(=O)[C@H](CCCNC(=N)N)NC(=O)[C@@H](Cc2ccccc2)NC(=O)[C@H](Cc2c[nH]cn2)NC1=O has what Potencies Relative to α-MSH, Frog Skin Assay? 25

* * *

- Test system: frog skin
- experiment_description: Frog skin assay: melanosome dispersion (skin darkening) in vitro
- Type: cell-based, Rana pipiens
- condition_set: tested in the range 10^-12 to 10^-9 M; compared to half-maximal effective dose of α-MSH (10^-10 M)
quantity_name: Potencies Relative to α-MSH, Frog Skin Assay
Respond with the number and no other words.

Entry CCCC[C@H](NC(=O)[C@H](CO)NC(=O)[C@H](Cc1ccc(O)cc1)NC(=O)[C@H](CO)NC(C)=O)C(=O)N[C@H]1CCC(=O)N[C@@H](CCCNC(=N)N)C(=O)N[C@@H](CCCCN)C(=O)NCCCC[C@@H](C(=O)N2CCC[C@H]2C(=O)N[C@H](C(N)=O)C(C)C)NC(=O)CNC(=O)[C@H](Cc2c[nH]c3ccccc23)NC(=O)[C@H](CCCNC(=N)N)NC(=O)[C@@H](Cc2ccccc2)NC(=O)[C@H](Cc2c[nH]cn2)NC1=O has what Potencies Relative to α-MSH, Frog Skin Assay? 20

Entry CCCC[C@H](NC(=O)[C@H](CO)NC(=O)[C@H](Cc1ccc(O)cc1)NC(=O)[C@H](CO)NC(C)=O)C(=O)N[C@H]1CCC(=O)N[C@@H](CCCCN)C(=O)N[C@@H](CCCCN)C(=O)NCCCC[C@@H](C(=O)N2CCC[C@H]2C(=O)N[C@H](C(N)=O)C(C)C)NC(=O)CNC(=O)[C@H](Cc2c[nH]c3ccccc23)NC(=O)[C@H](CCCNC(=N)N)NC(=O)[C@@H](Cc2ccccc2)NC(=O)[C@H](Cc2c[nH]cn2)NC1=O has what Potencies Relative to α-MSH, Frog Skin Assay? 100

Entry CCCC[C@H](NC(=O)[C@H](CO)NC(=O)[C@H](Cc1ccc(O)cc1)NC(=O)[C@H](CO)NC(C)=O)C(=O)N[C@H]1CCC(=O)N[C@@H](CCC(=O)O)C(=O)N[C@@H](CCC(=O)O)C(=O)NCCCC[C@@H](C(=O)N2CCC[C@H]2C(=O)N[C@H](C(N)=O)C(C)C)NC(=O)CNC(=O)[C@H](Cc2c[nH]c3ccccc23)NC(=O)[C@H](CCCNC(=N)N)NC(=O)[C@@H](Cc2ccccc2)NC(=O)[C@H](Cc2c[nH]cn2)NC1=O has what Potencies Relative to α-MSH, Frog Skin Assay? 1.3

Entry CCCC[C@H](NC(=O)[C@H](CO)NC(=O)[C@H](Cc1ccc(O)cc1)NC(=O)[C@H](CO)NC(C)=O)C(=O)N[C@H]1CCC(=O)N[C@@H](CCCCN)C(=O)N[C@@H](CCCNC(=N)N)C(=O)NCCCC[C@@H](C(=O)N2CCC[C@H]2C(=O)N[C@H](C(N)=O)C(C)C)NC(=O)CNC(=O)[C@H](Cc2c[nH]c3ccccc23)NC(=O)[C@H](CCCNC(=N)N)NC(=O)[C@@H](Cc2ccccc2)NC(=O)[C@H](Cc2c[nH]cn2)NC1=O has what Potencies Relative to α-MSH, Frog Skin Assay? 145

Entry CCCC[C@H](NC(C)=O)C(=O)N[C@H]1CC(=O)N[C@@H](CCCCN)C(=O)N[C@@H](CCCNC(=N)N)C(=O)NCCCC[C@@H](C(N)=O)NC(=O)[C@H](Cc2c[nH]c3ccccc23)NC(=O)[C@H](CCCNC(=N)N)NC(=O)[C@@H](Cc2ccccc2)NC(=O)[C@H](Cc2c[nH]cn2)NC1=O has what Potencies Relative to α-MSH, Frog Skin Assay? 0.05

Entry CCCC[C@@H]1NC(=O)CC[C@H](NC(=O)[C@H](CCCC)NC(=O)[C@H](CO)NC(=O)[C@H](Cc2ccc(O)cc2)NC(=O)[C@H](CO)NC(C)=O)C(=O)N[C@@H](Cc2c[nH]cn2)C(=O)N[C@H](Cc2ccccc2)C(=O)N[C@@H](CCCNC(=N)N)C(=O)N[C@@H](Cc2c[nH]c3ccccc23)C(=O)NCC(=O)N[C@H](C(=O)N2CCC[C@H]2C(=O)N[C@H](C(N)=O)C(C)C)CCCCNC(=O)[C@H](CCCC)NC1=O has what Potencies Relative to α-MSH, Frog Skin Assay? 7

Entry CCCC[C@H](NC(=O)[C@H](CO)NC(=O)[C@H](Cc1ccc(O)cc1)NC(=O)[C@H](CO)NC(C)=O)C(=O)N[C@H]1CCC(=O)NCCCC[C@@H](C(=O)N2CCC[C@H]2C(=O)N[C@H](C(N)=O)C(C)C)NC(=O)CNC(=O)[C@H](Cc2c[nH]c3ccccc23)NC(=O)[C@H](CCCNC(=N)N)NC(=O)[C@@H](Cc2ccccc2)NC(=O)[C@H](Cc2c[nH]cn2)NC1=O has what Potencies Relative to α-MSH, Frog Skin Assay? 1.3

Entry CC(=O)N[C@@H](CO)C(=O)N[C@@H](Cc1ccc(O)cc1)C(=O)N[C@@H](CCCCN)C(=O)N[C@@H](CCCCN)C(=O)N[C@H]1CCC(=O)N[C@@H](CCCNC(=N)N)C(=O)N[C@@H](CCCCN)C(=O)NCCCC[C@@H](C(=O)N2CCC[C@H]2C(=O)N[C@H](C(N)=O)C(C)C)NC(=O)CNC(=O)[C@H](Cc2c[nH]c3ccccc23)NC(=O)[C@H](CCCNC(=N)N)NC(=O)[C@@H](Cc2ccccc2)NC(=O)[C@H](Cc2c[nH]cn2)NC1=O has what Potencies Relative to α-MSH, Frog Skin Assay? 1

Entry CCCC[C@H](NC(=O)[C@H](CO)NC(=O)[C@H](Cc1ccc(O)cc1)NC(=O)[C@H](CO)NC(C)=O)C(=O)N[C@H]1CCC(=O)N[C@H](CCCCN)C(=O)N[C@H](CCCCN)C(=O)NCCCC[C@@H](C(=O)N2CCC[C@H]2C(=O)N[C@H](C(N)=O)C(C)C)NC(=O)CNC(=O)[C@H](Cc2c[nH]c3ccccc23)NC(=O)[C@H](CCCNC(=N)N)NC(=O)[C@@H](Cc2ccccc2)NC(=O)[C@H](Cc2c[nH]cn2)NC1=O has what Potencies Relative to α-MSH, Frog Skin Assay? 3.5

Entry CCCC[C@H](NC(C)=O)C(=O)N[C@H]1CC(=O)N[C@@H](CCCNC(=N)N)C(=O)N[C@@H](CCCNC(=N)N)C(=O)NCCCC[C@@H](C(N)=O)NC(=O)[C@H](Cc2c[nH]c3ccccc23)NC(=O)[C@H](CCCNC(=N)N)NC(=O)[C@@H](Cc2ccccc2)NC(=O)[C@H](Cc2c[nH]cn2)NC1=O has what Potencies Relative to α-MSH, Frog Skin Assay? 0.14
